# experiment_description: Half life in Sprague-Dawley rat at 0.25 mg/kg, iv
# Format: ADME, organism-based
# Design: dose 0.25 mg/kg, route intravenous
# assay_conditions: in vivo
Some molecules, each annotated with its measured log10 half-life.
Scale type: logarithmic (base 10). Underlying half-life unit: h.

                                smiles_text  reported_measurement
0  Cc1cc(-c2cc(F)c3nnc([C@](C)(F)c4ccc5ncccc5c4)n3c2)sn1                 -0.14

Inquiry: // log10 half-life lookup, key: Cn1cc(-c2cc(F)c3nnc(C(F)(F)c4ccc5ncccc5c4)n3c2)cn1
Reply text: 0.82

Inquiry: // log10 half-life lookup, key: Fc1cc(-c2cscn2)cn2c(C(F)(F)c3ccc4ncccc4c3)nnc12
Reply text: -0.52

Inquiry: // log10 half-life lookup, key: COCCOc1cnc2ccc([C@H](C)c3nnc4c(F)cc(-c5cc(C)no5)cn34)cc2c1
Reply text: 0.62

Inquiry: // log10 half-life lookup, key: COc1cnc2ccc([C@@](C)(F)c3nnc4c(F)cc(-c5cnn(C)c5)cn34)cc2c1
Reply text: 0.34

Inquiry: // log10 half-life lookup, key: Cc1cc(-c2cc(F)c3nnc(C(F)(F)c4ccc5ncccc5c4)n3c2)on1
Reply text: 0.40

Inquiry: // log10 half-life lookup, key: COc1cnc2ccc(C(F)(F)c3nnc4c(F)cc(-c5cscn5)cn34)cc2c1
Reply text: 0.18

----------
# experimental_system: Hepatocyte growth factor receptor (Homo sapiens)
# experiment_description: Inhibition of recombinant c-Met kinase domain (unknown origin) incubated for 30 mins using gastrin peptide substrate by HTRF assay
result_type: pIC50
# reply with the number alone; pIC50 is -log10 of concentration in mol/L

>>> print(df.to_string())
                                smiles_text  result_type  reported_measurement
0  Cn1cc(-c2cc(F)c3nnc(Cc4ccc5nc(N)sc5c4)n3c2)cn1        pIC50                  7.28

Inquiry: Enter reported pIC50 observed with Hepatocyte growth factor receptor (Homo sapiens) for COc1cnc2ccc(C3(c4nnc5c(F)cc(-c6cc(C)no6)cn45)CC3)cc2c1
Reply text: 7.03

Inquiry: Enter reported pIC50 observed with Hepatocyte growth factor receptor (Homo sapiens) for c1ccc(-c2ccc3nnc(Cc4ccc5ncccc5c4)n3c2)cc1
Reply text: 6.68

Inquiry: Enter reported pIC50 observed with Hepatocyte growth factor receptor (Homo sapiens) for Cn1cc(-c2cc(F)c3nnc(Cc4ccc5ncc(O)cc5c4)n3c2)cn1
Reply text: 7.29

Inquiry: Enter reported pIC50 observed with Hepatocyte growth factor receptor (Homo sapiens) for COc1cnc2ccc(C(F)(F)c3nnc4c(F)cc(-c5cscn5)cn34)cc2c1
Reply text: 8.70

----------
Some compounds, each annotated with its measured IC50.
# experimental_system: Hepatocyte growth factor receptor (Homo sapiens, UniProt P08581)
# Sequence (P08581 whole entry, the tested form may be a part): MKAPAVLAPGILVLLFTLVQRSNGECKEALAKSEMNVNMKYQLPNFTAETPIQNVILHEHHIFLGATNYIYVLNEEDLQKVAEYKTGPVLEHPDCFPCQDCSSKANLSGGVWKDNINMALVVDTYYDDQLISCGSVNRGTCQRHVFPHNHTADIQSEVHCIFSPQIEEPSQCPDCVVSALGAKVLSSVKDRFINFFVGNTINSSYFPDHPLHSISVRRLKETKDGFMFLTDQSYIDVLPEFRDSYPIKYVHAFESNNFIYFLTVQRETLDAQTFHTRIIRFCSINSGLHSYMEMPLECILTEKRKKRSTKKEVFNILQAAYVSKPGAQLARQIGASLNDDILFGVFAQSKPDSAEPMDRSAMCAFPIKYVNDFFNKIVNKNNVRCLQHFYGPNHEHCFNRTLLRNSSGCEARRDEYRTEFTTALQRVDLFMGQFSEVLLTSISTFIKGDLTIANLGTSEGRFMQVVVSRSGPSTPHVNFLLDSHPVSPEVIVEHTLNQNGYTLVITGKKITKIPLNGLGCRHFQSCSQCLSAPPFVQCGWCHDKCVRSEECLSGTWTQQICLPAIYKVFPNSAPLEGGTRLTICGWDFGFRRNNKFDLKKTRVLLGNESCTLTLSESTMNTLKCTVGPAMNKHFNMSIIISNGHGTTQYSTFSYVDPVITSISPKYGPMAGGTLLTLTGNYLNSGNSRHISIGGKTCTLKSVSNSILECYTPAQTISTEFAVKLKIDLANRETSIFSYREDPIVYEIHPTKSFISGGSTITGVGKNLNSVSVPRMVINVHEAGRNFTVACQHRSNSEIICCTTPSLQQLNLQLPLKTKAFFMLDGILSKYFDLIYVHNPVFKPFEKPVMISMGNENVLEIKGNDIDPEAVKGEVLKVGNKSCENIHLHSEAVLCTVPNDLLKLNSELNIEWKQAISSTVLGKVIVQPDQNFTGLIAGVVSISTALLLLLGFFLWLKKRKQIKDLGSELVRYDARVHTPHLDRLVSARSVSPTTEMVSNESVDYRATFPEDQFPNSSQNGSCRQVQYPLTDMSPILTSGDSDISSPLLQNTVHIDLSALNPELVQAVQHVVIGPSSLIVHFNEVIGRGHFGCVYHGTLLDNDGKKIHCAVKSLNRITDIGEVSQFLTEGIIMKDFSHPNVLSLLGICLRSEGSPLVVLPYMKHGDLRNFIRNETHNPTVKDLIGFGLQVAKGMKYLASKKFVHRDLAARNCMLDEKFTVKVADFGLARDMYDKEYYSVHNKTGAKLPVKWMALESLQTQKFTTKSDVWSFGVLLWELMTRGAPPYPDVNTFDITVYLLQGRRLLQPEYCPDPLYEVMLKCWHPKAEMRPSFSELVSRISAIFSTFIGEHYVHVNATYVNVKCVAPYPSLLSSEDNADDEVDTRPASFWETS
# experiment_description: Inhibition of HGF-stimulated c-Met autophosphorylation in serum starved human PC3 cells pre-incubated for 1 hr followed by human recombinant HGF stimulation for 10 mins by quantitative electrochemiluminescence immunoassay
# Type: cell-based, PC-3
Numbers only here, please. The scale is nM.

The following compounds have reported results that may help.
                                smiles_text  result_type  reported_measurement
0  COc1cnc2ccc(C(F)(F)c3nnc4c(F)cc(-c5cnn(C)c5)cn34)cc2c1         IC50                    13
1  Fc1cc(-c2cscn2)cn2c(C(F)(F)c3ccc4ncccc4c3)nnc12         IC50                     7
2  COc1cnc2ccc([C@H](C)c3nnc4c(F)cc(-c5cc(C)no5)cn34)cc2c1         IC50                     6
3  Cc1cc(-c2cc(F)c3nnc([C@](C)(F)c4ccc5ncccc5c4)n3c2)sn1         IC50                     6
4  Cc1cc(-c2cc(F)c3nnc([C@@H](C)c4ccc5ncccc5c4)n3c2)sn1         IC50                    12
5  CC[C@@H](c1ccc2ncc(OC)cc2c1)c1nnc2c(F)cc(-c3cc(C)no3)cn12         IC50                    67
6  COc1cnc2ccc([C@@](C)(F)c3nnc4c(F)cc(-c5cc(C)ns5)cn34)cc2c1         IC50                     4
7  COCCOc1cnc2ccc([C@H](C)c3nnc4c(F)cc(-c5cc(C)no5)cn34)cc2c1         IC50                     5
8  Cc1cc(-c2cc(F)c3nnc(C(F)(F)c4ccc5ncccc5c4)n3c2)on1         IC50                     9
9  Cc1ncc(-c2cc(F)c3nnc(C(F)(F)c4ccc5ncccc5c4)n3c2)s1         IC50                    35

Attention now shifts to the item below.
Inquiry: // IC50 lookup, key: COc1cnc2ccc([C@H](C)c3nnc4c(F)cc(-c5cn(C)cn5)cn34)cc2c1
Reply text: 4

Value source: ChEMBL document CHEMBL3414463
